Reference for the values: ChEMBL document CHEMBL4359820

- Tested on: NCI-H1975
- Assay type: functional, cell-based
- test context: Homo sapiens, NCI-H1975, 72 h
Task for the reader: assign each of the following compounds its reported IC50.

[Q] Find the measured IC50: item `COCCN1CCN(c2cc3ncnc(Nc4ccc(OCc5cccc(F)c5)c(Cl)c4)c3cc2F)CC1` , target or system NCI-H1975.
[A] > 100 µM

[Q] IC50 of `Fc1cccc(COc2ccc(Nc3ncnc4cc(N5CCOCC5)c(F)cc34)cc2Cl)c1` on NCI-H1975?
[A] 52.6 µM

[Q] Entry `Fc1ccc(Nc2ncnc3cc(N4CCOCC4)c(F)cc23)cc1Cl` , system NCI-H1975: what IC50 was measured?
[A] > 100 µM

[Q] Observed IC50 on NCI-H1975 for `COCCN1CCN(c2cc3ncnc(Nc4ccc(F)c(Cl)c4)c3cc2F)CC1` , please.
[A] 49.8 µM

[Q] Entry `C/C=C/c1ccc(Nc2ncnc3cc(N4CCOCC4)c(F)cc23)cc1` , system NCI-H1975: what IC50 was measured?
[A] > 100 µM

[Q] // map `C#Cc1cccc(Nc2ncnc3cc(N4CCN(CCOC)CC4)c(F)cc23)c1` to recorded IC50 (system: NCI-H1975)
[A] 68.1 µM

[Q] For NCI-H1975, provide IC50 of `C#Cc1cccc(Nc2ncnc3cc(N4CCOCC4)c(F)cc23)c1` please.
[A] > 100 µM

[Q] Query for NCI-H1975: what IC50 does the record show for `C/C=C/c1ccc(Nc2ncnc3cc(N4CCN(CCOC)CC4)c(F)cc23)cc1` ?
[A] > 100 µM
